I'd appreciate it if you could supply GI50 values for the items below.
# target.or.test.system: PIM1 transgenic cells (Ba/F3) (Homo sapiens, UniProt P11309)
# Sequence (P11309 whole entry, change not shown): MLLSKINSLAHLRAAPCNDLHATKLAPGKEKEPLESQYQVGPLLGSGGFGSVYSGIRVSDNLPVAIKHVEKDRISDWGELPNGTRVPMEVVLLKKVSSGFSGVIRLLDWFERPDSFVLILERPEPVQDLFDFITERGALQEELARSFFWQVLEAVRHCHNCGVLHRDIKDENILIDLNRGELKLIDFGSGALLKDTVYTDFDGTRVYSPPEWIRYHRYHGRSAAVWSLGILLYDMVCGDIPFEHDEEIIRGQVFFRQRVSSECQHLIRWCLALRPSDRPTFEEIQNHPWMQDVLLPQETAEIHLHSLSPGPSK
# protocol.details: Proliferation inhibitory effect on PIM1 transgenic cells
# Format: cell-based, mouse
# settings: proliferation inhibition, 72 hours, Cell Counting Kit-8, read-out: PIM1 IC50
Where a name gives a salt, the structure may show the parent alone.
State just the number; it will be interpreted in nM.

Query (compound): C[C@H](Nc1cc(-c2n[nH]c(=O)o2)ccc1C(F)(F)F)[C@H]1C[C@@H](N)C1(C)C [Example 153, hydrochloride] ; field requested: GI50
40

Query (compound): CO/N=C1\CCN([C@@H](C)[C@H]2CCNC[C@H]2C)c2cc(-c3n[nH]c(=O)o3)cc(F)c21 [Example 246, hydrochloride] ; field requested: GI50
4900

Query (compound): O=c1[nH]nc(-c2cc(F)c(Cl)c(NCC3(F)CCNCC3)c2)o1 [Example 123, hydrochloride] ; field requested: GI50
340

Query (compound): C[C@H](Nc1cc(-c2n[nH]c(=O)o2)cc(F)c1C(F)(F)F)C1(C)CCNCC1 [Example 206] ; field requested: GI50
32

Query (compound): Cc1cc(-c2n[nH]c(=O)o2)cc(N[C@@H](C)C2CCNCC2)c1Cl [Example 84, dihydrochloride] ; field requested: GI50
36

Query (compound): CCc1c(F)cc(-c2n[nH]c(=O)o2)cc1N[C@@H](C)[C@H]1CC[C@H](N)CC1 [Example 231, hydrochloride] ; field requested: GI50
37

Query (compound): C[C@H](Nc1cc(-c2n[nH]c(=O)o2)cc(Br)c1Cl)[C@H]1C[C@@H](N)C1 [Example 182, hydrochloride] ; field requested: GI50
45

Query (compound): O=c1[nH]nc(-c2ccc(C(F)(F)F)c(NC[C@H]3CCCNC3)c2)o1 [Example 53, hydrochloride] ; field requested: GI50
1600

Query (compound): C[C@H](Nc1cc(-c2n[nH]c(=O)o2)ccc1C(F)(F)F)C1(F)CCNCC1 [Example 125, hydrochloride] ; field requested: GI50
40

Query (compound): C[C@H](Nc1cc(-c2n[nH]c(=O)o2)cc(F)c1OC(F)(F)F)C1CCNCC1.Cl [Example 202, hydrochloride] ; field requested: GI50
26

Query (compound): CN[C@H]1CC[C@H]([C@H](C)Nc2cc(-c3n[nH]c(=O)o3)ccc2C(F)(F)F)CC1 [Example 189, hydrochloride] ; field requested: GI50
44

Query (compound): O=c1[nH]nc(-c2ccc(C(F)(F)F)c(/C=C/C3CCNCC3)c2)o1 [Example 30, hydrochloride] ; field requested: GI50
970

Query (compound): O=c1[nH]nc(-c2ccc(Cl)c(OC[C@H]3C[C@@H](N4CCNCC4)C3)c2)o1 [Example 242] ; field requested: GI50
2600

Query (compound): C[C@H](Nc1cc(-c2n[nH]c(=O)o2)ccc1C(F)(F)F)[C@@H]1CC[C@H](N)C1 [Example 200, hydrochloride] ; field requested: GI50
100

###

# target.or.test.system: PIM1 transgenic cells (Ba/F3) (Homo sapiens, UniProt P11309)
# protocol.details: Proliferation inhibitory effect on PIM1 transgenic cells
# Type: cell-based, mouse
# settings: proliferation inhibition, 72 hours, Cell Counting Kit-8, read-out: PIM1 IC50
Structures can show the parent of a compound that is named as a salt.
I'd appreciate it if you could supply GI50 values for the items below.
Record the result as number plus unit.

Query (compound): CC(Nc1cc(-c2n[nH]c(=O)o2)ccc1C(F)(F)F)C1(C)CCNCC1 (stereo not shown) ; field requested: GI50
100 nM

Query (compound): C[C@H](Nc1cc(-c2n[nH]c(=O)o2)ccc1Br)C1CCNCC1 [Example 78, dihydrochloride] ; field requested: GI50
170 nM

Query (compound): "CC[C@@H]1CNCC[C@@H]1[C@H](C)Nc1cc(-c2n[nH]c(=O)o2)cc(F)c1C(F)(F)F" ; field requested: GI50
7.6 nM

Query (compound): C[C@H](Nc1cc(-c2n[nH]c(=O)o2)ccc1C#N)C1CCNCC1 [Example 85, hydrochloride] ; field requested: GI50
610 nM

Query (compound): "Cc1c(F)cc(-c2n[nH]c(=O)o2)cc1N[C@@H](C)[C@H]1CCNC[C@H]1C" ; field requested: GI50
15 nM

Query (compound): O=c1[nH]nc(-c2ccc(C(F)(F)F)c(NCC3(F)CCNCC3)c2)o1 [Example 108, hydrochloride] ; field requested: GI50
270 nM

Query (compound): C[C@H](Nc1cc(-c2n[nH]c(=O)o2)ccc1C(F)(F)F)[C@H]1[C@@H]2CC[C@H]1CNC2 [Example 156, hydrochloride] ; field requested: GI50
160 nM

The measurements presented in this section are drawn from patent US20220024921A1.
